System: Mus musculus
Assay: Toxicity in Swiss albino mouse implanted with mouse EAC cells assessed as effect on WBC count at 0.5 mg/mouse administered for 9 days (reference value: 23.96 10^3/mm3)
Type: organism-based
Conditions: in vivo, 216 h
measured endpoint: Activity (×10³ /mm3)
Return type: number; implicit unit ×10³ /mm3.

Asked: Look up Activity for this compound: Cc1n[nH]c2c1C(c1ccc(N(C)C)cc1)C(C(N)=O)=C(N)N2 (stereo not given)
Given back: 8.2

Asked: Please give the measured Activity for this compound: Cc1n[nH]c2c1C(c1ccc(N(C)C)cc1)C(C(=O)NNc1cc([N+](=O)[O-])ccc1[N+](=O)[O-])=C(N)N2 (stereo not given)
Given back: 10.32

Asked: Which value of Activity has been reported for "COc1cccc2c1C(=O)c1c(O)c3c(c(O)c1C2=O)C[C@@](O)(C(=O)CO)C[C@@H]3O[C@H]1C[C@H](N)[C@H](O)[C@H](C)O1" in the records?
Given back: 8.96

Asked: Name the reported Activity value associated with the compound Cc1n[nH]c2c1C(c1ccc(N(C)C)cc1)C=C(N)N2 (stereo not given)
Given back: 12.69

Asked: For the compound shown here, Cc1n[nH]c2c1C(c1ccc(N(C)C)cc1)C(C(=O)NNC(N)=S)=C(N)N2 (stereo not given) , give the reported Activity.
Given back: 8.52
